experiment: chemical genetic growth profiling, strain panel (AID 1159580);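 also: tested at 20 µM; growth read once vehicle control cultures reached saturation at 30 °C; lower values mean less growth of the strain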; conditions: S. cerevisiae deletion strains, growth OD, locus YCL029C, strain bik1
Screen size: about 5,500 compounds; about 2,000 (36%) were called active. Another 18% or so got no clear call; they are omitted. Rule as the data show it: active = normalized growth mostly below about 0.91 (no sharp cut-off); inconclusive = no clear call, values can overlap the other calls; inactive = mostly above about 0.92. The list shows a part of the results.
Labels: T = active, F = inactive

[[record]]
compound = "O=C(c1ccccc1)c1ccc2n1CCC2C(=O)O (configuration not stated)"
answerlabel = "F"

[[record]]
compound = "O=C(Nc1ccc([N+](=O)[O-])cc1Cl)c1cc(Cl)ccc1O"
answerlabel = "T"

[[record]]
compound = "COc1cc(Cc2cnc(N)nc2N)cc(OC)c1OC"
answerlabel = "F"

[[record]]
compound = "CC(C)N=C(N)N=C(N)Nc1ccc(Cl)cc1"
answerlabel = "F"

[[record]]
compound = "CNC(=O)N(C)c1nnc(C(C)(C)C)s1"
answerlabel = "F"

[[record]]
compound = "CC1=C(C(=O)O)N2C(=O)[C@@H](NC(=O)[C@@H](N)c3ccc(O)cc3)[C@H]2SC1"
answerlabel = "F"

[[record]]
compound = "C[C@]12[C@H](O)CC3C(CC[C@@H]4C[C@@H](O)CC[C@]34C)[C@@]1(O)CC[C@@H]2C1=CC(=O)OC1 (some centres not stated)"
answerlabel = "F"

[[record]]
compound = "C=C[C@H]1CN2CC[C@H]1C[C@H]2[C@H](O)c1ccnc2ccccc12"
answerlabel = "F"

[[record]]
compound = "CCCC(=O)Nc1ccc(OCC(O)CNC(C)C)c(C(C)=O)c1 (configuration not stated)"
answerlabel = "F"

[[record]]
compound = "O=c1c(O)c(-c2ccccc2)oc2ccc3occc3c12"
answerlabel = "T"

[[record]]
compound = "COc1cc(O)ccc1C(C)=O"
answerlabel = "F"

[[record]]
compound = "O=C(O)CC[N+](=O)[O-]"
answerlabel = "F"

[[record]]
compound = "CC(=O)Oc1c(C)c(C)c2c(c1C)CCC(C)(CCCC(C)CCCC(C)CCCC(C)C)O2 (configuration not stated)"
answerlabel = "F"

[[record]]
compound = "CNC(=O)Oc1cccc2c1OC(C)(C)C2"
answerlabel = "F"

[[record]]
compound = "CN1C(=O)CC[C@H]1c1cccnc1"
answerlabel = "F"

[[record]]
compound = "CC(C)=CCC/C(C)=C/CO"
answerlabel = "F"

[[record]]
compound = "CC(C)Cn1c(=O)n(C)c(=O)c2[nH]cnc21"
answerlabel = "F"

[[record]]
compound = "COc1ccccc1OCC(O)COC(N)=O (configuration not stated)"
answerlabel = "F"

[[record]]
compound = "N[C@@H](C(=O)N[C@@H]1C(=O)N2C(C(=O)O)=C(Cl)CS[C@H]12)c1ccccc1"
answerlabel = "F"

[[record]]
compound = "COC(=O)CC1C(C)(C)C(=O)C2CC3(O)C4=CC(=O)OC(c5ccoc5)C4(C)CCC3C1(C)C2=O (configuration not stated)"
answerlabel = "F"

[[record]]
compound = "COc1ccc([C@@H](C)C(=O)c2ccc(O)cc2O)cc1"
answerlabel = "F"

[[record]]
compound = "COC(=O)C[C@H]1C(C)(C)[C@H](O)[C@@H]2CC3=C4CC(O)O[C@@H](c5ccoc5)[C@]4(C)CCC3[C@@]1(C)C2=O (some centres not stated)"
answerlabel = "F"

